# Test system: kochia (Kochia scoparia)
# Experimental Protocol: Test C pre/postemergence
# Assay type: in vivo
# Test Settings: Bassia scoparia, post-emergence, Postemergence, 31 g ai/ha; read-out: Plant response rating (scale of 0 to 100), Kochia
Attribute Measured: pest or weed control at 31 g/ha
Write the numeric value and follow it with the unit.

A selection of reference data follows.
CCOC(=O)c1nc(C2CC2)nc(N)c1F [Compound 30]	55%
Nc1nc(C2CC2)nc(C(=O)OCc2ccccc2)c1Cl [Compound 78]	90%
CCOC(=O)c1nc(C2CC2)nc(NN)c1Br [Compound 42]	5%

As a next step, examine the compound that follows.
So the reported pest or weed control at 31 g/ha for Nc1nc(C2CC2)nc(C(=O)O)c1Cl [Compound 135] , on kochia (Kochia scoparia), turned out to be 90%

====

# Test system: crabgrass (Digitaria sanguinalis)
# Experimental Protocol: Test A pre/postemergence
# Type: in vivo
# Test Settings: Postemergence, 125 g ai/ha; 0 to 100 scale (0 no effect, 100 complete control)
Attribute Measured: Plant response rating, Crabgrass

A selection of reference data follows.
CS(=O)(=O)NC(=O)c1nc(-c2ccc(Cl)cc2)nc(N)c1Cl	10
CCOC(=O)c1nc(-c2ccc(Cl)c(Cl)c2)nc(N)c1Cl	15
COC(=O)c1nc(-c2ccc(I)cc2)nc(N)c1Br	0
Nc1nc(C2CC2)nc(C(=O)O)c1Cl	65
CC(C)OC(=O)c1nc(-c2ccc(Cl)cc2)nc(N)c1Cl	10

What the record says about CCOC(=O)c1nc(-c2ccc(C(F)(F)F)cc2)nc(N)c1Cl : Plant response rating, Crabgrass is 15

What the record says about CCOC(=O)c1nc(-c2ccc(C(F)(F)F)cc2)nc(N)c1Br : Plant response rating, Crabgrass is 0

What the record says about NC(=O)c1nc(-c2ccc(Br)cc2)nc(N)c1Br : Plant response rating, Crabgrass is 0

What the record says about COC(=O)c1nc(-c2ccc(C)cc2)nc(N)c1Cl : Plant response rating, Crabgrass is 0

What the record says about COC(=O)COC(=O)c1nc(C2CC2)nc(N)c1Cl : Plant response rating, Crabgrass is 10

====

# Test system: green foxtail (Setaria viridis)
# Experimental Protocol: Test G pre/postemergence
# Format: in vivo
# Test Settings: Preemergence, 250 g ai/ha, scale 0-100
Below, each of the molecules is paired with its reported Plant response rating, Foxtail, Green value.
Keep it simple and answer with nothing but the number.

A selection of reference data follows.
CCOC(=O)c1nc(C2CC2)nc(N)c1Br	50
CCOC(=O)c1nc(C2CC2)nc(N)c1Cl	100
Nc1nc(C2CC2)nc(C(=O)OCc2ccccc2)c1Br	20

What the record says about COC(=O)c1nc(C2CC2)nc(N)c1Cl : Plant response rating, Foxtail, Green is 100

====

Below, each of the compounds is paired with its reported Plant response rating, Barnyardgrass value.
# Test system: barnyardgrass (Echinochloa crus-galli)
# Experimental Protocol: Test A pre/postemergence
# Type: in vivo
# Test Settings: Preemergence, 500 g ai/ha; 0 to 100 scale where 0 is no effect and 100 is complete control; approximately ten days
Keep it simple and answer with nothing but the number.

CCOC(=O)c1nc(-c2ccc(Cl)cc2Cl)nc(N)c1Br	0
CCOC(=O)c1nc(-c2ccc(F)cc2)nc(N)c1Br	40
Nc1nc(-c2ccc(Br)cc2)nc(C(=O)O)c1Br	40

What the record says about CCOC(=O)c1nc(-c2ccc(OC)cc2)nc(N)c1Cl : Plant response rating, Barnyardgrass is 0

What the record says about CCOC(=O)c1nc(-c2ccc(Cl)cc2Cl)nc(N)c1Cl : Plant response rating, Barnyardgrass is 0

What the record says about CCCCOC(=O)c1nc(C2CC2)nc(N)c1Cl : Plant response rating, Barnyardgrass is 90

What the record says about Nc1nc(-c2ccc(F)cc2)nc(C(=O)O)c1Br : Plant response rating, Barnyardgrass is 30

What the record says about Nc1nc(C2CC2)nc(C(=O)Oc2ccc(Cl)cc2)c1Cl : Plant response rating, Barnyardgrass is 75

What the record says about CCOC(=O)c1nc(-c2ccc(C(F)(F)F)cc2)nc(N)c1Br : Plant response rating, Barnyardgrass is 0

What the record says about CC(C)OC(=O)c1nc(-c2ccc(Cl)cc2)nc(N)c1Cl : Plant response rating, Barnyardgrass is 0

What the record says about COC(=O)c1nc(-c2ccc(Br)cc2)nc(N)c1Br : Plant response rating, Barnyardgrass is 0

====

# Test system: lambsquarters (Chenopodium album)
# Experimental Protocol: Test B pre/postemergence
# Type: in vivo
# Test Settings: Chenopodium album, post-emergence, Postemergence, 500 g ai/ha; scale 0 to 100; read-out: Plant response rating, Lambsquarters
Below, each of the compounds is paired with its reported pest or weed control at 500 g/ha value.
# value in %; strip the unit string

COC(=O)c1nc(C2CC2)nc(N)c1I	100
Nc1nc(C2CC2)nc(C=O)c1Br	80
CCOC(=O)c1nc(C2CC2)nc(NN)c1Br	90
Nc1nc(C2CC2)nc(C=O)c1F	80
COC(=O)c1nc(C2CC2)nc(N)c1Br	100

What the record says about Nc1nc(C2CC2)nc(C(=O)O)c1Br : pest or weed control at 500 g/ha is 100

What the record says about CNc1nc(C2CC2)nc(C(=O)OC)c1Br : pest or weed control at 500 g/ha is 100

====

# Test system: redroot pigweed (Amaranthus retroflexus)
# Experimental Protocol: Test A pre/postemergence
# Format: in vivo
# Test Settings: Amaranthus retroflexus, pre-emergence, 240 h, Preemergence, 500 g ai/ha; 0 to 100 scale where 0 is no effect and 100 is complete control; approximately ten days; read-out: Plant response rating, Pigweed
Rule: pest or weed control at 500 g/ha below 60% gives Satisfied. Equal to or above 60% gives Not satisfied.

Previously resolved entries follow.
CCOC(=O)c1nc(-c2ccc3c(c2)OCO3)nc(N)c1Br	Satisfied
Nc1nc(-c2ccc(Cl)cc2)nc(C(=O)O)c1Cl	Not satisfied
CCOC(=O)c1nc(-c2ccc3c(c2)OCO3)nc(N)c1Cl	Satisfied

I'd appreciate it if you could check whether Nc1nc(C2CC2)nc(C(=O)OCc2ccccc2)c1Cl has pest or weed control at 500 g/ha smaller than 60%.
Not satisfied

I'd appreciate it if you could check whether CCOC(=O)c1nc(C(C)C)nc(N)c1Cl has pest or weed control at 500 g/ha smaller than 60%.
Not satisfied

I'd appreciate it if you could check whether Nc1nc(C2CC2)nc(C(=O)[O-])c1Cl.[Na+] [Compound 77, monosodium salt] has pest or weed control at 500 g/ha smaller than 60%.
Not satisfied

====

# Tested on: soybean (Glycine max)
# Experimental Protocol: Test C pre/postemergence
# Type: in vivo
# Test Settings: Glycine max, post-emergence, Postemergence, 62 g ai/ha; scale 0 to 100 (0 no effect, 100 complete control); read-out: Soybean plant response rating
Attribute Measured: plant injury at 62 g/ha (%)
# value in %; strip the unit string

A selection of reference data follows.
Nc1nc(C2CC2)nc(C(=O)OCc2ccccc2)c1Br [Compound 22]	95
COC(=O)c1nc(C2CC2)nc(N)c1Cl [Compound 9]	100
CNc1nc(C2CC2)nc(C(=O)OC)c1Br [Compound 5]	95

As a next step, examine the compound that follows.
So the reported plant injury at 62 g/ha for CCOC(=O)c1nc(C2CC2)nc(N)c1F [Compound 30] , on soybean (Glycine max), turned out to be 90

====

# Tested on: woolly cupgrass (Eriochloa villosa)
# Experimental Protocol: Test C pre/postemergence
# Type: in vivo
# Test Settings: Postemergence, 31 g ai/ha
Decide by Plant response rating (scale of 0 to 100), Cupgrass, Woolly: equal to or exceeding 60 means True, less means False.

Previously resolved entries follow.
CCOC(=O)C(OC(C)=O)c1nc(C2CC2)nc(N)c1Br (stereo not drawn) [Compound 47]	False
Nc1nc(-c2ccc(Br)cc2)nc(C(=O)O)c1Br [Compound 136]	True
Nc1nc(-c2ccc(Cl)cc2)nc(C(=O)[O-])c1Cl.[Na+] [Compound 117]	True
Nc1nc(-c2ccc(Cl)cc2)nc(C(=O)O)c1Br [Compound 88]	True

# ---- query compound ----
I'd appreciate it if you could say whether COCc1nc(C2CC2)nc(N)c1Br [Compound 11] has Plant response rating (scale of 0 to 100), Cupgrass, Woolly at least equal to 60.
False

====

# Tested on: wild oat (Avena fatua)
# Experimental Protocol: Test B postemergence
# Type: in vivo
# Test Settings: Avena fatua, post-emergence, 500 g ai/ha, scale 0 to 100, read-out: Plant response rating, Oat, Wild
# Experimental: […] At the same time, plants selected from these crop and weed species and also blackgrass (Alopecurus myosuroides) and wild oat (Avena fatua) were treated with postemergence applications of test chemicals formulated in the same manner. […] Treated plants and controls were maintained in a greenhouse for 13 to 15 days, after which time all species were compared to controls and visually evaluated. […]
Attribute Measured: pest or weed control at 500 g/ha (%)
# value in %; strip the unit string

A selection of reference data follows.
Nc1nc(C2CC2)nc(C(=O)O)c1Br [Compound 8]	0
Nc1nc(C2CC2)nc(CO)c1Br [Compound 21]	0
COC(=O)c1nc(-c2ccccc2)nc(N)c1Br [Compound 23]	10
COC(=O)c1nc(C2CC2)nc(N)c1F [Compound 25]	20
CCOC(=O)c1nc(C2CC2)nc(N)c1F [Compound 30]	70

What the record says about COC(=O)c1nc(C2CC2)nc(N)c1I [Compound 7] : pest or weed control at 500 g/ha is 70

Source listed as patent US8802597B2.
